Could you please report measured IC50 for the items listed next?
target: Myosin light chain kinase, smooth muscle (Gallus gallus, UniProt P11799); experiment: Inhibitory activity against MLCK (smooth muscle myosin light chain kinase)
Sequence (P11799 whole entry): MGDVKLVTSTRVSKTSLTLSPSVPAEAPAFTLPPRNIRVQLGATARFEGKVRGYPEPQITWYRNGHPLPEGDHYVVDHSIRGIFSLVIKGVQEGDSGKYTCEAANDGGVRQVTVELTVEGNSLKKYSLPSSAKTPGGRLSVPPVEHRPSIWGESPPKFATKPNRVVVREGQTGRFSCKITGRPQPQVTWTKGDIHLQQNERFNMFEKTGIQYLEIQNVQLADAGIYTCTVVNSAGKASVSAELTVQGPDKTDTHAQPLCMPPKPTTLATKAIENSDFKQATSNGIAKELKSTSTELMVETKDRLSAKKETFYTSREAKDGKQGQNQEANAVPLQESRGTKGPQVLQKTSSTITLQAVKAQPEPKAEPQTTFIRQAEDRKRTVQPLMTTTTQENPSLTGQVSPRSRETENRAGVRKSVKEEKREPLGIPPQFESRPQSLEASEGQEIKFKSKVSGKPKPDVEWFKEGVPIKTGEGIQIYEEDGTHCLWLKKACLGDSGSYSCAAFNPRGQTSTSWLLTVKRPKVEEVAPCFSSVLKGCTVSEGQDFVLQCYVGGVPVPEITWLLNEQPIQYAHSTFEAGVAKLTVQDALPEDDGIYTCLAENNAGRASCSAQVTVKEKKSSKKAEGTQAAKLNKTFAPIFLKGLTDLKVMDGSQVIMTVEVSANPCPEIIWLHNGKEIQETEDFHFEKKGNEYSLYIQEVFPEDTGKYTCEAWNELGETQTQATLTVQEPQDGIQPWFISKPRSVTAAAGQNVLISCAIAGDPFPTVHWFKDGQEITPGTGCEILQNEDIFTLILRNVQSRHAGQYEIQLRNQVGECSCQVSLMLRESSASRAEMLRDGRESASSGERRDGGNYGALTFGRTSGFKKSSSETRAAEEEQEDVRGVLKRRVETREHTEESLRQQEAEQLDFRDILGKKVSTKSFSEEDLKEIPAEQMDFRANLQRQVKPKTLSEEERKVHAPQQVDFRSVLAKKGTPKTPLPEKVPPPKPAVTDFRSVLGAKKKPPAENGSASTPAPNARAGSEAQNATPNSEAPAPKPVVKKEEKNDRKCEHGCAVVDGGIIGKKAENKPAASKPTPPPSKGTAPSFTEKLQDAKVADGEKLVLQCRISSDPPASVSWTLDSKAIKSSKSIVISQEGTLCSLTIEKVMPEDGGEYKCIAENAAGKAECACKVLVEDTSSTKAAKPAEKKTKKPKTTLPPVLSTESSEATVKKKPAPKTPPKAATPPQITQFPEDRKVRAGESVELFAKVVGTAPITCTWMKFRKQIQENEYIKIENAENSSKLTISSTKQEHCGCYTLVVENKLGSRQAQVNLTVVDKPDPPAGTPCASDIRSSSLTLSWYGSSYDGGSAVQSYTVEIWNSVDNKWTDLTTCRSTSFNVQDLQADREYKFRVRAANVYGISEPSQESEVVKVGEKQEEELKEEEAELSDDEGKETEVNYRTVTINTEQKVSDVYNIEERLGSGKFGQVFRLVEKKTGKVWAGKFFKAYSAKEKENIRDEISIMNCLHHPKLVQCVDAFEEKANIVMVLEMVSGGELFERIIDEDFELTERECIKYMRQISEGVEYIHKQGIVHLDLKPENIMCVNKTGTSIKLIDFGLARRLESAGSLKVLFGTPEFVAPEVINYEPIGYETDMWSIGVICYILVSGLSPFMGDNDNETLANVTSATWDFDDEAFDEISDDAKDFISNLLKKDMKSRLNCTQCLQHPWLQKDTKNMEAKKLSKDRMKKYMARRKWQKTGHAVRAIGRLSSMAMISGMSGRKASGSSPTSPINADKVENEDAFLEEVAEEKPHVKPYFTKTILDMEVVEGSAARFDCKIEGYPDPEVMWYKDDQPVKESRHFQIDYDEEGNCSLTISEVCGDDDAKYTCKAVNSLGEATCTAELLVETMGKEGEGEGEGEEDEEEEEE
Write down the numeric answer in nM and omit the unit.

GET /values?readout=IC50&item= H-RKKYKNRRK-NH2
290

GET /values?readout=IC50&item= H-RKKYKQRRK-NH2
300

GET /values?readout=IC50&item= H-RKKYKPRRK-NH2
120

GET /values?readout=IC50&item= H-RKKYKGRRK-NH2
310

GET /values?readout=IC50&item= H-RKKYKKRRK-NH2
220

GET /values?readout=IC50&item= H-RKKYKHRRK-NH2
290

GET /values?readout=IC50&item= H-RKKYKYRRK-NH2
50

GET /values?readout=IC50&item= H-RKKYKWRRK-NH2
200

GET /values?readout=IC50&item= H-RKKYKSRRK-NH2
150

GET /values?readout=IC50&item= H-RKKYKARRK-NH2
420

###

Could you please report measured Ratio for the items listed next?
experiment: Ratio of the inhibitory concentrations against CaMPKII and MLCK. IC50 (CaMPKII ) / IC50 (MLCK).
Starred links: 1 amine or outer side, 2 acyl side, 3 side chain; linkers in the order of their positions; H or OH if unused. Non-standard residues stand in square brackets, D forms with d. Residues, ends and D or L forms follow the SMILES beside them. X1 = O=C(C1CCC(N[*:1])CC1)[*:2]

GET /values?readout=Ratio&item= NCCCC[C@H](NC(=O)[C@H](CCCN=C(N)N)NC(=O)[C@H](CCCN=C(N)N)NC(=O)C1CCC(NC(=O)[C@H](CCCCN)NC(=O)[C@H](Cc2ccc(O)cc2)NC(=O)[C@H](CCCCN)NC(=O)[C@H](CCCCN)NC(=O)[C@@H](N)CCCN=C(N)N)CC1)C(N)=O (stereo partly drawn) (H-RKKYK[X1]RRK-NH2)
> 741

GET /values?readout=Ratio&item= CC[C@@H](C)[C@H](NC(=O)[C@H](CCCCN)NC(=O)[C@H](Cc1ccc(O)cc1)NC(=O)[C@H](CCCCN)NC(=O)[C@H](CCCCN)NC(=O)[C@@H](N)CCCN=C(N)N)C(=O)N[C@@H](CCCN=C(N)N)C(=O)N[C@@H](CCCN=C(N)N)C(=O)N[C@@H](CCCCN)C(N)=O
359

GET /values?readout=Ratio&item= C[C@H](O)[C@H](NC(=O)[C@H](CCCCN)NC(=O)[C@H](Cc1ccc(O)cc1)NC(=O)[C@H](CCCCN)NC(=O)[C@H](CCCCN)NC(=O)[C@@H](N)CCCN=C(N)N)C(=O)N[C@@H](CCCN=C(N)N)C(=O)N[C@@H](CCCN=C(N)N)C(=O)N[C@@H](CCCCN)C(N)=O
> 274

Recorded values, source ChEMBL document CHEMBL1132602.
